Target: Mitogen-activated protein kinase 14 (Homo sapiens)
Sequence (Q16539 whole entry): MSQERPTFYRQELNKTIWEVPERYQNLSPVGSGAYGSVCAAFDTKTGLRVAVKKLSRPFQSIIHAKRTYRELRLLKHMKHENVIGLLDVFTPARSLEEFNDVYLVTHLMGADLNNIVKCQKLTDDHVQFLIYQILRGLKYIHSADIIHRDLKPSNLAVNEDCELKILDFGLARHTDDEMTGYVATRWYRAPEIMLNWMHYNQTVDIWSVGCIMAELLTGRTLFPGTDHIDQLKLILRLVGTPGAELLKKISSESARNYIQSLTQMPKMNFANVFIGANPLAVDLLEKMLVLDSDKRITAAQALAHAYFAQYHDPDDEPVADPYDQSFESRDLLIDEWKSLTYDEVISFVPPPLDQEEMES
Experiment: Inhibition of p38alpha at 30 uM by microfluidic mobility shift assay
measurement_name: inhibition (%)
Report the figure in % without appending any unit label.

Use the examples below as a reference point.
[[record]]
input_smiles = "Cc1cc2[nH]nc(N)c2cn1"
measurement_name = "inhibition"
scale_unit = "%"
observed_result = 2

[[record]]
input_smiles = "Nc1n[nH]c2cc(-c3ccc(N4CCOCC4)cc3)[nH]c(=O)c12"
measurement_name = "inhibition"
scale_unit = "%"
observed_result = 6


// switching to the query molecule
## Input Entry `Nc1n[nH]c2c3c([nH]c(=O)c12)CCCC3` : reported inhibition = ?
## Output -4

---

Experiment: Inhibition of PKA at 30 uM by microfluidic mobility shift assay
measurement_name: inhibition (%)
Report the figure in % without appending any unit label.

[[record]]
input_smiles = "CC(=O)Nc1nn(C)c2cc(-c3ccccc3)[nH]c(=O)c12"
observed_result = -2

[[record]]
input_smiles = "Cc1cc2[nH]nc(N)c2cn1"
observed_result = 19

[[record]]
input_smiles = "CN1CCN(c2ccc(-c3cc4[nH]nc(N)c4c(=O)[nH]3)cc2)CC1"
observed_result = 98

[[record]]
input_smiles = "O=S(=O)(NCCNC/C=C/c1ccc(Br)cc1)c1cccc2cnccc12"
observed_result = 100


## Input Entry `Cc1cc2nc(-c3ccccc3)nc(N)c2c(=O)[nH]1` : reported inhibition = ?
## Output 50

## Input Entry `Nc1n[nH]c2c3c([nH]c(=O)c12)CCCC3` : reported inhibition = ?
## Output 2

## Input Entry `Cc1cc2[nH]nc(N)c2c(=O)[nH]1` : reported inhibition = ?
## Output 57

## Input Entry `Cc1cc2c(c(NC(=O)Nc3ccccc3)nn2C)c(=O)[nH]1` : reported inhibition = ?
## Output -6

---

Recorded inhibition, one value per entry.
Molecular target: Ribosomal protein S6 kinase alpha-1 (Homo sapiens)
Experiment: Inhibition of RSK1 at 30 uM by microfluidic mobility shift assay
Report the figure in % without appending any unit label.

Use the examples below as a reference point.
[[record]]
input_smiles = "CC(C)(C)c1cc2nn(-c3ccccc3)c(N)c2c(=O)[nH]1"
observed_result = 5

[[record]]
input_smiles = "Nc1n[nH]c2c3c([nH]c(=O)c12)CCCC3"
observed_result = -9

[[record]]
input_smiles = "COCCNc1nc(C)cc2nn(-c3ccccc3)c(N)c12"
observed_result = 2

[[record]]
input_smiles = "Cc1cc2nc(-c3ccccc3)nc(N)c2c(=O)[nH]1"
observed_result = 14

[[record]]
input_smiles = "COc1ccccc1-c1cc2nn(-c3ccccc3)c(N)c2c(=O)[nH]1"
observed_result = 3


## Input Short answer please: inhibition, Ribosomal protein S6 kinase alpha-1 (Homo sapiens), entry `Nc1n[nH]c2cc(CC3CCNCC3)[nH]c(=O)c12`
## Output 11

## Input Short answer please: inhibition, Ribosomal protein S6 kinase alpha-1 (Homo sapiens), entry `Cn1nc(N)c2cnc(-c3ccccc3)cc21`
## Output 2

## Input Short answer please: inhibition, Ribosomal protein S6 kinase alpha-1 (Homo sapiens), entry `COc1ccc(S(=O)(=O)Nc2nn(C)c3cc(C)[nH]c(=O)c23)c(OC)c1`
## Output -2

## Input Short answer please: inhibition, Ribosomal protein S6 kinase alpha-1 (Homo sapiens), entry `Cc1[nH]c(=O)c2c(N)n(-c3ccccc3)nc2c1-c1ccccc1`
## Output -2

---

Molecular target: Aurora kinase A (Homo sapiens)
Sequence (whole entry): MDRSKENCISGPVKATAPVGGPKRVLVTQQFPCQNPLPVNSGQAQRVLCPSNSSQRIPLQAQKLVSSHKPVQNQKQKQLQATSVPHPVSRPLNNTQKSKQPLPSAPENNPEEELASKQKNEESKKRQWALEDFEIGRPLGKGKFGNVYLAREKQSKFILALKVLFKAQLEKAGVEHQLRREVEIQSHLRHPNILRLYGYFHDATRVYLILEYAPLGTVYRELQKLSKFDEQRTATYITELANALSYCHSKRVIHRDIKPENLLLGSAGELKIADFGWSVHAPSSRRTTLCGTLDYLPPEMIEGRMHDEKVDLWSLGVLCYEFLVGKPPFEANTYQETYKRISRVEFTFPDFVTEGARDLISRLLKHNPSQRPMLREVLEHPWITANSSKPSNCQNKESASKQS
Assay: Inhibition of AurA at 30 uM by microfluidic mobility shift assay
Recorded inhibition, one value per entry.
Report the figure in % without appending any unit label.

Use the examples below as a reference point.
[[record]]
input_smiles = "COCCNc1nc(-c2ccccc2)cc2c1c(N)nn2C"
observed_result = 10

[[record]]
input_smiles = "Cc1cc2c(c(N)nn2C)c(N2CC[C@H](O)C2)n1"
observed_result = 0

[[record]]
input_smiles = "COCCNc1nc(C)cc2nn(-c3ccccc3)c(N)c12"
observed_result = 32

[[record]]
input_smiles = "COC(=O)CCc1c(C)[nH]c(=O)c2c(N)nn(C)c12"
observed_result = 9

[[record]]
input_smiles = "Cc1cc2[nH]ncc2c(=O)[nH]1"
observed_result = 13

[[record]]
input_smiles = "Nc1c2c(=O)[nH]c(-c3ccccc3)cc2nn1-c1ccccc1"
observed_result = 61

[[record]]
input_smiles = "Nc1n[nH]c2cc(-c3cccnc3)[nH]c(=O)c12"
observed_result = 42

[[record]]
input_smiles = "Nc1n[nH]c2c3c([nH]c(=O)c12)CCCC3"
observed_result = 12


## Input Short answer please: inhibition, Aurora kinase A (Homo sapiens), entry `Cc1cc2nn(-c3ccccc3)c(N)c2c(=O)[nH]1`
## Output 6

## Input Short answer please: inhibition, Aurora kinase A (Homo sapiens), entry `COc1cccc(-c2cc3[nH]nc(N)c3c(=O)[nH]2)c1`
## Output 49

## Input Short answer please: inhibition, Aurora kinase A (Homo sapiens), entry `Cn1nc2c3c(nc(-c4ccccc4)cc31)NCC(=O)N2`
## Output 20

## Input Short answer please: inhibition, Aurora kinase A (Homo sapiens), entry `Cc1cc2c(c(N)nn2C)c(=O)[nH]1`
## Output 4

---

Recorded inhibition, one value per entry.
Target: Tyrosine-protein kinase Lyn (Homo sapiens, UniProt P07948)
Sequence (P07948 2-512 limits assumed): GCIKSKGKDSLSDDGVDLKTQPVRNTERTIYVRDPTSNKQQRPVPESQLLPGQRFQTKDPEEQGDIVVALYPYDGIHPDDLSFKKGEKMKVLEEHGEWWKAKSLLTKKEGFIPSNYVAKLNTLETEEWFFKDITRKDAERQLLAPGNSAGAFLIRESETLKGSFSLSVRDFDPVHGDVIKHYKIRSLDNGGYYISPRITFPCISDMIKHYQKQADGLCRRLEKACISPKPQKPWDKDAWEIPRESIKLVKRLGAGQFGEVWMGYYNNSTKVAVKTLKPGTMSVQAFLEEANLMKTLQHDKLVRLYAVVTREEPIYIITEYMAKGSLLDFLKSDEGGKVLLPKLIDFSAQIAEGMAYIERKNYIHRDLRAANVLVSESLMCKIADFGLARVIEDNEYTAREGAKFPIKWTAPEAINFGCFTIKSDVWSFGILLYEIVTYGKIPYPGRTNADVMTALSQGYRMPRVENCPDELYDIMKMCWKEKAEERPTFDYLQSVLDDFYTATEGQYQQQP
Assay: Inhibition of LYN at 30 uM by microfluidic mobility shift assay
Report the figure in % without appending any unit label.

Use the examples below as a reference point.
[[record]]
input_smiles = "COCCNc1nc(C)cc2nn(-c3ccccc3)c(N)c12"
observed_result = 6

[[record]]
input_smiles = "Cc1cc2[nH]nc(N)c2c(=O)[nH]1"
observed_result = 3

[[record]]
input_smiles = "Cc1cc2c(c(NC(=O)Nc3ccccc3)nn2C)c(=O)[nH]1"
observed_result = 16

[[record]]
input_smiles = "Cc1cc2c(c(NS(C)(=O)=O)nn2C)c(=O)[nH]1"
observed_result = 1

[[record]]
input_smiles = "CC(C)(C)c1cc2[nH]nc(N)c2c(=O)[nH]1"
observed_result = 40


## Input Entry `Nc1n[nH]c2cc(CC3CCNCC3)[nH]c(=O)c12` : reported inhibition = ?
## Output -1

## Input Entry `Nc1c2c(=O)[nH]c(-c3ccccn3)cc2nn1-c1ccccc1` : reported inhibition = ?
## Output 97

## Input Entry `Cc1cc2c(c(N)nn2C)c(N2CCOCC2)n1` : reported inhibition = ?
## Output 17

## Input Entry `COc1ccc(-c2cc3nn(-c4ccccc4)c(N)c3c(=O)[nH]2)cc1` : reported inhibition = ?
## Output 90

---

Target: Mitogen-activated protein kinase 1 (Homo sapiens) (UniProt P28482)
Sequence (P28482 whole entry): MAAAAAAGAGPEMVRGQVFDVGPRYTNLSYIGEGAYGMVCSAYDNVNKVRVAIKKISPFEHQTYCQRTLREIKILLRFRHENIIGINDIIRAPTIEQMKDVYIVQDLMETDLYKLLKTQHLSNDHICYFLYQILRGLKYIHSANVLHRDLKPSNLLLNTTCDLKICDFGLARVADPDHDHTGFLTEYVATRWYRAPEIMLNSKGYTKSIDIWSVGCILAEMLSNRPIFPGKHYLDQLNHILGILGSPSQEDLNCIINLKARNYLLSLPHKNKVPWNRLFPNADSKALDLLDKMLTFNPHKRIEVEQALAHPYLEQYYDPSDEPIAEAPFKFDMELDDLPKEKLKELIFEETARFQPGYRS
Test: Inhibition of ERK2 at 30 uM by microfluidic mobility shift assay
Recorded inhibition, one value per entry.
Report the figure in % without appending any unit label.

[[record]]
input_smiles = "Cc1cc2c(c(NS(C)(=O)=O)nn2C)c(=O)[nH]1"
measurement_name = "inhibition"
observed_result = 3


// switching to the query compound
## Input Entry `Cc1cc2c(c(NC(=O)Nc3ccccc3)nn2C)c(=O)[nH]1` : reported inhibition = ?
## Output 7

---

Target: UniProtKB P12931
Sequence (P12931 2-536 limits assumed): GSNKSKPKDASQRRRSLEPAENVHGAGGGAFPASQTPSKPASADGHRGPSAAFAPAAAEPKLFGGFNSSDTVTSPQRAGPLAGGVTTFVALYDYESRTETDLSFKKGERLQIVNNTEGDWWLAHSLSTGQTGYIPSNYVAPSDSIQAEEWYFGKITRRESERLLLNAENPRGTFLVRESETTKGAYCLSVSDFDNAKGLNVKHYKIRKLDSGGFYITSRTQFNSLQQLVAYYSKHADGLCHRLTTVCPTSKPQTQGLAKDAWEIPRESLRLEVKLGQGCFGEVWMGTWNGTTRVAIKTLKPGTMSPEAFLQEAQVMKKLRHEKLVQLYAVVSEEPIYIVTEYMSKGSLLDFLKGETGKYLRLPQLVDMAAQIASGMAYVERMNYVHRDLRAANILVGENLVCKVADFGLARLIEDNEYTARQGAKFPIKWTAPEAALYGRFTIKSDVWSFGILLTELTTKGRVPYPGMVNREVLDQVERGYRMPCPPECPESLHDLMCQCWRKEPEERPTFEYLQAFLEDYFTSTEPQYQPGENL
Test: Inhibition of SRC at 30 uM by microfluidic mobility shift assay
measurement_name: inhibition (%)
Report the figure in % without appending any unit label.

Use the examples below as a reference point.
[[record]]
input_smiles = "COc1ccc(S(=O)(=O)Nc2nn(C)c3cc(C)[nH]c(=O)c23)c(OC)c1"
observed_result = 2

[[record]]
input_smiles = "Nc1n[nH]c2cc(CC3CCNCC3)[nH]c(=O)c12"
observed_result = 4

[[record]]
input_smiles = "Cc1cc2[nH]nc(N)c2c(N2CCCCC2)n1"
observed_result = 33

[[record]]
input_smiles = "Cn1nc2c3c(nc(-c4ccccc4)cc31)NCC(=O)N2"
observed_result = 22

[[record]]
input_smiles = "COCCNc1nc(C)cc2c1c(N)nn2C"
observed_result = 2


// switching to the query compound
## Input Entry `COc1ccc(-c2c(C)[nH]c(=O)c3c(N)nn(C)c23)cc1` : reported inhibition = ?
## Output 15
